System: 817829-284-R-J1-PDC complex spheroids, viability;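 further: spheroids exposed to the agents for seven days before readout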
Test: Anticancer human tumor 817829-284-R-J1-PDC patient-derived colon adenocarcinoma cell line growth inhibition [CLK]
Conditions: curve of first compound; second compound 3.16 µM
pIC50: −log10 of the molar value.
measurement-name: pIC50

molecule	assayed-system	obs-value
O=C(c1cc(Cc2n[nH]c(=O)c3ccccc23)ccc1F)N1CCN(C(=O)C2CC2)CC1 + CN1CCN(c2cc(C(=O)Nc3cc4cc(-c5cnn(C)c5)ccc4cn3)ccn2)CC1	817829-284-R-J1-PDC complex spheroids, viability	> 7.50
CC(C)CC(NC(=O)C(Cc1ccccc1)NC(=O)c1cnccn1)B(O)O (stereo not given) + CNC(=O)c1ccc(Nc2nc(OC3CCCC3)c3c(-c4ccc5nc(C)oc5c4)c[nH]c3n2)c(OC)c1	817829-284-R-J1-PDC complex spheroids, viability	> 9.02
NC(=O)C(=Cn1cnc(-c2cc(C(F)(F)F)cc(C(F)(F)F)c2)n1)c1cncnc1 + CN1CCN(c2cc(C(=O)Nc3cc4cc(-c5cnn(C)c5)ccc4cn3)ccn2)CC1	817829-284-R-J1-PDC complex spheroids, viability	> 8.02
CC(Nc1ccc2c(c1)OCCn1cc(N3C(=O)OCC3C(F)F)nc1-2)C(N)=O (stereo not given) + CN1CCN(c2cc(C(=O)Nc3cc4cc(-c5cnn(C)c5)ccc4cn3)ccn2)CC1	817829-284-R-J1-PDC complex spheroids, viability	> 7.50
CC(=O)O[C@H]1C(=O)[C@@]2(C)[C@H]([C@H](OC(=O)c3ccccc3)[C@]3(O)C[C@H](OC(=O)[C@H](O)[C@@H](NC(=O)c4ccccc4)c4ccccc4)C(C)=C1C3(C)C)[C@]1(OC(C)=O)CO[C@@H]1C[C@@H]2O + CNC(=O)c1ccc(Nc2nc(OC3CCCC3)c3c(-c4ccc5nc(C)oc5c4)c[nH]c3n2)c(OC)c1	817829-284-R-J1-PDC complex spheroids, viability	> 7.50
CC(CO)NC(=O)c1cc(-c2ccc(Cl)cc2)nn(-c2cnn(C)c2)c1=O (stereo not given) + CNC(=O)c1ccc(Nc2nc(OC3CCCC3)c3c(-c4ccc5nc(C)oc5c4)c[nH]c3n2)c(OC)c1	817829-284-R-J1-PDC complex spheroids, viability	> 7.50
O=c1[nH]cc(F)c(=O)[nH]1 + CNC(=O)c1ccc(Nc2nc(OC3CCCC3)c3c(-c4ccc5nc(C)oc5c4)c[nH]c3n2)c(OC)c1	817829-284-R-J1-PDC complex spheroids, viability	> 7.50
C=CC(=O)Nc1cc(Nc2nccc(-c3cn(C)c4ccccc34)n2)c(OC)cc1N(C)CCN(C)C + CN1CCN(c2cc(C(=O)Nc3cc4cc(-c5cnn(C)c5)ccc4cn3)ccn2)CC1	817829-284-R-J1-PDC complex spheroids, viability	> 9.02
CC(=O)O[C@H]1C(=O)[C@@]2(C)[C@H]([C@H](OC(=O)c3ccccc3)[C@]3(O)C[C@H](OC(=O)[C@H](O)[C@@H](NC(=O)c4ccccc4)c4ccccc4)C(C)=C1C3(C)C)[C@]1(OC(C)=O)CO[C@@H]1C[C@@H]2O + CN1CCN(c2cc(C(=O)Nc3cc4cc(-c5cnn(C)c5)ccc4cn3)ccn2)CC1	817829-284-R-J1-PDC complex spheroids, viability	> 7.50
CC(Nc1ccc2c(c1)OCCn1cc(N3C(=O)OCC3C(F)F)nc1-2)C(N)=O (stereo not given) + CNC(=O)c1ccc(Nc2nc(OC3CCCC3)c3c(-c4ccc5nc(C)oc5c4)c[nH]c3n2)c(OC)c1	817829-284-R-J1-PDC complex spheroids, viability	> 7.50
